Listing: pEC50 of selected molecules
- Target Entity: opioid μ receptor (Homo sapiens)
- Sequence (P35372 whole entry): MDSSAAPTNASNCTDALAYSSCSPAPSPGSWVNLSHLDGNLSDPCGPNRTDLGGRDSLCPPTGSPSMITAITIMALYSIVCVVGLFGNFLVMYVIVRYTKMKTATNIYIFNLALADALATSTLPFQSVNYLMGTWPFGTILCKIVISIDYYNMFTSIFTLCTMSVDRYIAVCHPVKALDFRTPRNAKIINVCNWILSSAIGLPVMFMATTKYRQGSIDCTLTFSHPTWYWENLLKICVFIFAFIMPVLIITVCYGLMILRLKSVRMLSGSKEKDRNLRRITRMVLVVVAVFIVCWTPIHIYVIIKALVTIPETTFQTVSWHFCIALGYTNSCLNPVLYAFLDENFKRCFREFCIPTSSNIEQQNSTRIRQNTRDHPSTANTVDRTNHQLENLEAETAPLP
- Experimental Protocol: Opioid receptor functional test (Lance Ultra cAMP Kit), μ receptor agonist activity
- Measurement Setup: CHO cells expressing μ opioid receptor, 10 μM forskolin, cAMP; hydrochloride was used
pEC50: −log10 of the molar value.
Metric Name: pEC50

1) CN1CC[C@@]23c4cc(O)ccc4C[C@@H]1[C@]21CC[C@@H]2[C@H]3[C@@H](CN2C(=O)c2ccccc2)O1	< 9.00
2) O=C(c1ccccc1)N1C[C@H]2O[C@@]34CC[C@@H]1[C@@H]2[C@@]31CCN(CCO)[C@@H]4Cc2ccc(O)cc21	< 7.30
3) COc1ccc2c(c1)[C@]13CCN(CC4CC4)[C@H](C2)[C@]12CCC1C3[C@@H](CN1c1nc(C)cc(C)n1)C2 (stereo partly drawn)	< 7.00
4) O=C(c1ccccc1)N1C[C@H]2O[C@@]34CC[C@@H]1[C@@H]2[C@@]31CCN(CC2CC2)[C@@H]4Cc2cccc(O)c21	< 7.00
5) Cc1cc(C)nc(N2C[C@H]3CC45CCC2C3C42CCN(C[C@H](C)O)C5Cc3ccc(O)cc32)n1 (stereo partly drawn)	< 8.00
6) Cc1cc(C)nc(N2C[C@H]3CC45CCC2C3C42CCN(CC3CC3)C5Cc3ccccc32)n1 (stereo partly drawn)	< 7.00
7) COc1cc2c(cc1[N+](=O)[O-])C[C@H]1N(CC3CC3)CC[C@@]23C2C4CC[C@@]13C[C@@H]2CN4c1nc(C)cc(C)n1 (stereo partly drawn)	< 7.00
8) O=C(c1ccccc1)N1C[C@H]2C[C@@]34CCC1C2[C@@]31CCN(CC2CC2)[C@@H]4Cc2ccccc21 (stereo partly drawn)	< 7.30
9) O=S(=O)(c1ccccc1)N1C[C@H]2O[C@@]34CC[C@@H]1[C@@H]2[C@@]31CCN(CC2CC2)[C@@H]4Cc2ccc(O)cc21	< 9.00
10) Cc1cc(C)nc(N2C[C@H]3C[C@@]45CCC2C3[C@@]42CCN(CC3CC3)[C@@H]5Cc3cccc(O)c32)n1 (stereo partly drawn)	< 7.30
11) Cc1cc(C)nc(N2C[C@H]3CC45CCC2C3C42CCN(CC(F)(F)c3ccccc3)C5Cc3ccc(O)cc32)n1 (stereo partly drawn)	< 6.30
12) Oc1ccc2c(c1)[C@]13CCN(CC4CC4)[C@H](C2)[C@]12CCC1C3[C@@H](CN1c1ccccn1)C2 (stereo partly drawn)	< 9.00
